Provenance of the data: the supplement of paper PMC10567573

- method.description: protein stability index of a GFP-peptide fusion (GPS, HEK-293T) (PSI 1-6); higher = more stable;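 note: 24-mer peptide tiles fused after GFP, lentivirally expressed, FACS-sorted into six equal bins by GFP/DsRed ratio, decoded by Illumina sequencing, PSI is the read-weighted mean bin number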
- setup.conditions: treatment: MLN4924 1 uM, 8 h; c terminus: a fixed tail appended
quantity: protein stability index
Field format: numeric only.

Request: Field request: protein stability index | item: EFTELLKVMIHPDPERRPSAMALV [WEE1]
Response: 2.06

Request: What do you get for VMSGVKCSGTELSLAHCRHDGEDV [LOXL2] ?
Response: 4.89

Request: What do you get for KMPVLKAEASHYNSDLNNLLFCCQ [RHOBTB3] ?
Response: 2.29

Request: What do you get for EGIKVEDLLFIVDTMLEEVENKEK [CEP70] ?
Response: 3.03

Request: What do you get for PPPDAAATAASSSASSPASVGDPC [SLC25A25] ?
Response: 5.58

Request: What do you get for PHYPEYFQQPAPEYHQPQAPANVA [LOXL2] ?
Response: 4.2

Request: What do you get for AFLRRVKTCNPPDAGPMVVHCSAG [PTPRD] ?
Response: 2.18

Request: What do you get for VDQYLALPDVSLGRYAYVRGGGDP [MCOLN1] ?
Response: 3.03

Request: What do you get for LTCSLSFLLCARSLLRGFLLQNEF [MCOLN1] ?
Response: 2.93

Request: What do you get for SSYPVCVSKVVKGGSSGKGTTLRG [OAS1] ?
Response: 4.18

Request: What do you get for EDSSLPSINALLQAEVLSRQITSP [HNF4A] ?
Response: 4.27

Request: What do you get for LVTTHHLMVHGNERFIQYLASRNT [SNAP91] ?
Response: 2.07

Request: What do you get for GVGGKRSSKSDADSGFLGLRPTSV [NOP53] ?
Response: 4.03

Request: What do you get for TKKLRLTKPSKSAALHIDLCKATS [INTS4] ?
Response: 3.13

Request: What do you get for CSFSIERILGLDQKKDCVPLMKPH [HESX1] ?
Response: 2.43

Request: What do you get for DAETPPRFTRTPVDQTGVSGGVAS [PTPRD] ?
Response: 4.64

Request: What do you get for PDDFVPPVPPPSYFATFYSCTPRM [FAM189A2] ?
Response: 2.7

Request: What do you get for AKINIVYQELNYRSVEEAPVYSVP [SCNN1D] ?
Response: 2.15

Request: What do you get for ELIILYEKKGLHEKALQVLVDQSK [VPS39] ?
Response: 2.53

Request: What do you get for MLLSVSQSMSEEEREKVTPLMVKG [SEPHS2] ?
Response: 3.86

Request: What do you get for FKRWIYLNDQNLCIPASSSFVYGA [GAN] ?
Response: 2.47

Request: What do you get for PSDPLVSIGALISKAHLEKVRSYV [ALDH8A1] ?
Response: 2.12

Request: What do you get for RTPLHYAAANCHFHCIETLVTTGA [ANKRD44] ?
Response: 2.44

Request: What do you get for MFLHPVDYGRKAEELLWRKVYYEV [SMG5] ?
Response: 2.11

Request: What do you get for WVSTQLQATCNVHKSAFNDWFSGH [FADS1] ?
Response: 2.43

Request: What do you get for NDRDFLTRIFTEDRFAQDSEMKKC [PPEF2] ?
Response: 4.79

Request: What do you get for IYNSNIFTDPFFIVETLCIIWFSF [KCNA1] ?
Response: 3.17

Request: What do you get for SLLRGFLLQNEFVGFMWRQRGRVI [MCOLN1] ?
Response: 2.13

Request: What do you get for DTETFTWSQPITTGKAPSPRAAHA [KLHDC2] ?
Response: 4.41

Request: What do you get for QNPTASYYNVVLLRYQFSRPGPQS [FCHO1] ?
Response: 2.41

Request: What do you get for KYSYTSTSDDNLLKNIELFDKLAL [KCTD13] ?
Response: 2.59

Request: What do you get for VMDYLPISSTSTKRTYWPDLDAKI [PLD5] ?
Response: 2.85

Request: What do you get for TSGGSNIIYVASNHFVWRLIPVPM [VPS39] ?
Response: 2.51

Request: What do you get for IMGNLLIIVTIMASQSLGSPMYFF [OR4A15] ?
Response: 3.52

Request: What do you get for RFIRERDRAVNDYPSLYYPEMYIL [CDC25B] ?
Response: 1.91

Request: What do you get for IVAIIPYFITLGTEIAEQEGNQKG [KCNA1] ?
Response: 2.55

Request: What do you get for VELLHNTSYTRQACLVSCFQQLMV [SCNN1D] ?
Response: 2.5

Request: What do you get for TPLQSRTSIVQAAAGGVPGGGSNN [PDLIM7] ?
Response: 5.03

Request: What do you get for LTENTAENRELYIKTTLRELLVYI [PKD2L1] ?
Response: 2.45

Request: What do you get for WGHCEIRMRYLNGLDPEPLPLMDL [SPSB1] ?
Response: 2.36

Request: What do you get for RLVLPIAYEFNPELVLVSAGFDAA [HDAC6] ?
Response: 2.4

Request: What do you get for TATDGGSPPLSTEAHFMLQVADIN [PCDHGA10] ?
Response: 4.19

Request: What do you get for KKHNVTAVVRLNKKIYEAKRFTDA [CDC14A] ?
Response: 2.49

Request: What do you get for LLADLKKCGDLECEALINRVSAMR [MIA2] ?
Response: 2.55

Request: What do you get for VCSILLGTSTLLVWVGVIRYLTFF [MCOLN1] ?
Response: 3.02

Request: What do you get for ARYIDTHNRVSKEDEDIYKLRHDL [PLK2] ?
Response: 3.8

Request: What do you get for KKCCIPETRRRMEMAFNTRCKEEN [NLN] ?
Response: 3.75

Request: What do you get for GSPVSSWILLAESNSADDETDDPR [OAS1] ?
Response: 4.99

Request: What do you get for TPGGRGDMKYGIYAVENEHMNRLQ [VTI1B] ?
Response: 3.55

Request: What do you get for ACGDFFTACLTDRGIIMTFGSGSN [NEK8] ?
Response: 2.78

Request: What do you get for NGTRVQEEPELVFTLGDCDVIQAL [FKBP8] ?
Response: 3.83

Request: What do you get for REGDCAPEEKIWEELSVLEVFEGR [MAGEA3] ?
Response: 5.14

Request: What do you get for CPGKGAWSIPWKWLFGATAVALGG [FKBP8] ?
Response: 2.37
